- TEST_DETAILS: compound binding in COS7 lysate, probe aLAP1, primary screen, cell lysate, small-molecule microarray (AID 1124);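 further: lysate comes from COS7 cells expressing LAP1 and is applied at 0.3 µg/mL; score merges spot fluorescence near 667 nm with signal-to-noise over triplicate slides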
- CONDITIONS: probe aLAP1, fluorescence, higher = more signal
composite z-score reference
Reply with just the number.

# COMPOUND, composite z-score
rows = [
    ("C=C(COC)/C(=C/C[C@@H](OC(=O)c1ccncc1)c1ccccc1OCCO)c1cnc2ccccc2c1", 0.475),
    ("COc1cccc(C)c1NC(=O)O[C@H]1[C@H](OC(=O)Nc2ccccc2)[C@@H](OC(=O)Nc2ccccc2)[C@@H](OC)O[C@@H]1CO", 0.665),
    ("C[C@]12C(=O)N(CCO)[C@@H]3C(=O)N(c4ccc(Cl)cc4)CC=CC31O[C@@H]1/C=C\\CCCOC(=O)C12 (some centres undefined)", -0.0785),
]

Consider now this further compound.
// query Fill in reported composite z-score for this entry: CC(C)(C)OC(=O)CC[C@]1(C(=O)N2CCOCC2)COC(c2ccc(OCCCO)cc2)=N1
// result -0.494
